Measured Image storage stability-2 (stored in light, 40°C, 50%) Dmax by item
experiment: Example 2: image storage stability 2 (developed material stored under light irradiation); conditions: Table 4, 8×10^-2 mol/mol-Ag, 24 hours, 10,000 luces, relative humidity 50%
endpoint: Image storage stability-2 (stored in light, 40°C, 50%) Dmax

molecule="CCCCCCCCCCCCN(CCCCCCCCCCCC)C(=O)c1cc(S(C)(=O)=O)ccc1S(=O)(=O)C(Br)(Br)Br [Comparative Compound (5)]" recordedmeasurement=3.7
molecule="O=C(c1cccc(S(=O)(=O)C(Br)(Br)Br)c1)N1CCCC1 [Comparative Compound (3)]" recordedmeasurement=3.6
molecule="CCCC(C)NC(=O)c1cccc(S(=O)(=O)C(Br)(Br)Br)c1 (stereo not drawn) [P'-20]" recordedmeasurement=4.0

====

assay: Example 1: image storage stability 2 (developed material stored under light irradiation); details: Table 1, 1.6×10^-1 mol/mol-Ag, 24 hours, 10,000 luces, relative humidity 50%
endpoint: Image storage stability-2 (stored in light, 40°C, 50%) Dmin

molecule="CCCCNS(=O)(=O)c1cccc(S(=O)(=O)C(Br)(Br)Br)c1 [P-18]" recordedmeasurement=0.20
molecule="COCCCNC(=O)c1cccc(S(=O)(=O)C(Br)(Br)Br)c1 [P-11]" recordedmeasurement=0.17
molecule="CCCCCCOCCN(CC)C(=O)c1cccc(S(=O)(=O)C(Br)(Br)Br)c1 [Comparative Compound 1]" recordedmeasurement=0.17
molecule="CCNC(=O)c1ccccc1S(=O)(=O)C(Br)(Br)Br [Comparative Compound 3]" recordedmeasurement=0.25

====

Measured Image storage stability-1 (stored in dark, 60°C, 50%) Dmax by item
test: Example 1: image storage stability 1 (developed material stored in the dark); conditions: Table 1, 1.6×10^-1 mol/mol-Ag, 24 hours, relative humidity 50%
endpoint: Image storage stability-1 (stored in dark, 60°C, 50%) Dmax

molecule="COCCCNC(=O)c1cccc(S(=O)(=O)C(Br)(Br)Br)c1 [P-11]" recordedmeasurement=2.9
molecule="CCNC(=O)c1ccccc1S(=O)(=O)C(Br)(Br)Br [Comparative Compound 3]" recordedmeasurement=2.9
molecule="CCCCCCOCCN(CC)C(=O)c1cccc(S(=O)(=O)C(Br)(Br)Br)c1 [Comparative Compound 1]" recordedmeasurement=2.1
molecule="CCCCNS(=O)(=O)c1cccc(S(=O)(=O)C(Br)(Br)Br)c1 [P-18]" recordedmeasurement=3.0

====

Measured Image storage stability-2 (stored in light, 40°C, 50%) Dmax by item
experiment: Example 1: image storage stability 2 (developed material stored under light irradiation); conditions: Table 1, 1.6×10^-1 mol/mol-Ag, 24 hours, 10,000 luces, relative humidity 50%
endpoint: Image storage stability-2 (stored in light, 40°C, 50%) Dmax

cpdsmiles=CCCCNS(=O)(=O)c1cccc(S(=O)(=O)C(Br)(Br)Br)c1 recordedmeasurement=3.0
cpdsmiles=COCCCNC(=O)c1cccc(S(=O)(=O)C(Br)(Br)Br)c1 recordedmeasurement=3.0
cpdsmiles=CCCCCCOCCN(CC)C(=O)c1cccc(S(=O)(=O)C(Br)(Br)Br)c1 recordedmeasurement=2.5
cpdsmiles=CCNC(=O)c1ccccc1S(=O)(=O)C(Br)(Br)Br recordedmeasurement=3.0

====

Measured Image storage stability-2 (stored in light, 40°C, 50%) Dmin by item
Experiment: Example 2: image storage stability 2 (developed material stored under light irradiation)
Settings: Table 4, 8×10^-2 mol/mol-Ag, 24 hours, 10,000 luces, relative humidity 50%
From the text: Each light-exposed thermally processed image recording material was heat-developed by using a heat-developing apparatus as shown in Fig.1. The roller surface material of the heat development section was composed of silicone rubber, and the flat surface consisted of Teflon non-woven fabric. […]
endpoint: Image storage stability-2 (stored in light, 40°C, 50%) Dmin

molecule=CCCCCCCCCCCCN(CCCCCCCCCCCC)C(=O)c1cc(S(C)(=O)=O)ccc1S(=O)(=O)C(Br)(Br)Br recordedmeasurement=0.29
molecule=CCCCOCCCNC(=O)c1cccc(S(=O)(=O)C(Br)(Br)Br)c1 recordedmeasurement=0.07
molecule="CCCC(C)NC(=O)c1cccc(S(=O)(=O)C(Br)(Br)Br)c1 (centres unmarked)" recordedmeasurement=0.07
molecule=CCCCCCCCCCCCCCCCNC(=O)c1cccc(S(=O)(=O)C(Br)(Br)Br)c1 recordedmeasurement=0.22
molecule=CCC(CC)NC(=O)c1cccc(S(=O)(=O)C(Br)(Br)Br)c1 recordedmeasurement=0.08
molecule=O=C(c1cccc(S(=O)(=O)C(Br)(Br)Br)c1)N1CCCC1 recordedmeasurement=0.23
molecule=CCCCCCCCN(CCCCCCCC)S(=O)(=O)c1ccc(S(=O)(=O)C(Br)(Br)Br)cc1 recordedmeasurement=0.25
molecule=CCOCCNC(=O)c1cccc(S(=O)(=O)C(Br)(Br)Br)c1 recordedmeasurement=0.08

====

assay: Example 2: image storage stability 1 (developed material stored in the dark); settings: Table 4, 8×10^-2 mol/mol-Ag, 24 hours, relative humidity 50%
endpoint: Image storage stability-1 (stored in dark, 60°C, 50%) Dmax

molecule="CCCCCCCCN(CCCCCCCC)S(=O)(=O)c1ccc(S(=O)(=O)C(Br)(Br)Br)cc1 [Comparative Compound (4)]" recordedmeasurement=3.7
molecule="CCCCCCCCCCCCCCCCNC(=O)c1cccc(S(=O)(=O)C(Br)(Br)Br)c1 [Comparative Compound (1)]" recordedmeasurement=3.6
molecule="O=C(c1cccc(S(=O)(=O)C(Br)(Br)Br)c1)N1CCCC1 [Comparative Compound (3)]" recordedmeasurement=3.6
molecule="CCOCCNC(=O)c1cccc(S(=O)(=O)C(Br)(Br)Br)c1 [P'-1]" recordedmeasurement=3.9

====

Measured Image storage stability-2 (stored in light, 40°C, 50%) Dmax by item
Assay: Example 2: image storage stability 2 (developed material stored under light irradiation)
Settings: Table 4, 8×10^-2 mol/mol-Ag, 24 hours, 10,000 luces, relative humidity 50%
Text: Each light-exposed thermally processed image recording material was heat-developed by using a heat-developing apparatus as shown in Fig.1. The roller surface material of the heat development section was composed of silicone rubber, and the flat surface consisted of Teflon non-woven fabric. […]
endpoint: Image storage stability-2 (stored in light, 40°C, 50%) Dmax

compound="CCC(CC)NC(=O)c1cccc(S(=O)(=O)C(Br)(Br)Br)c1 [P'-18]" recordedmeasurement=4.0
compound="CCOCCNC(=O)c1cccc(S(=O)(=O)C(Br)(Br)Br)c1 [P'-1]" recordedmeasurement=4.0
compound="CCCCOCCCNC(=O)c1cccc(S(=O)(=O)C(Br)(Br)Br)c1 [P'-15]" recordedmeasurement=4.0
compound="CCCCCCCCN(CCCCCCCC)S(=O)(=O)c1ccc(S(=O)(=O)C(Br)(Br)Br)cc1 [Comparative Compound (4)]" recordedmeasurement=3.6
compound="CCCCCCCCCCCCCCCCNC(=O)c1cccc(S(=O)(=O)C(Br)(Br)Br)c1 [Comparative Compound (1)]" recordedmeasurement=3.4

====

assay: Example 1: image storage stability 2 (developed material stored under light irradiation); details: Table 2, 1.6×10^-1 mol/mol-Ag, 24 hours, 10,000 luces, relative humidity 50%
endpoint: Image storage stability-2 (stored in light, 40°C, 50%) Dmax

compound="CCCCCCCCCCCCN(CCCCCCCCCCCC)C(=O)c1cc(S(C)(=O)=O)ccc1S(=O)(=O)C(Br)(Br)Br [Comparative Compound (5)]" recordedmeasurement=2.9
compound="O=C(c1cccc(S(=O)(=O)C(Br)(Br)Br)c1)N1CCCC1 [Comparative Compound (3)]" recordedmeasurement=3.0
compound="CCCCCCCCN(CCCCCCCC)S(=O)(=O)c1ccc(S(=O)(=O)C(Br)(Br)Br)cc1 [Comparative Compound (4)]" recordedmeasurement=2.9

====

Experiment: Example 2: image storage stability 1 (developed material stored in the dark)
Settings: Table 4, 8×10^-2 mol/mol-Ag, 24 hours, relative humidity 50%
Excerpt: Each light-exposed thermally processed image recording material was heat-developed by using a heat-developing apparatus as shown in Fig.1. The roller surface material of the heat development section was composed of silicone rubber, and the flat surface consisted of Teflon non-woven fabric. […]
Measured Image storage stability-1 (stored in dark, 60°C, 50%) Dmax by item
endpoint: Image storage stability-1 (stored in dark, 60°C, 50%) Dmax

compound="CCCCCCCCCCCCN(CCCCCCCCCCCC)C(=O)c1cc(S(C)(=O)=O)ccc1S(=O)(=O)C(Br)(Br)Br [Comparative Compound (5)]" recordedmeasurement=3.7
compound="CCCCOCCCNC(=O)c1cccc(S(=O)(=O)C(Br)(Br)Br)c1 [P'-15]" recordedmeasurement=3.9
compound="CCC(CC)NC(=O)c1cccc(S(=O)(=O)C(Br)(Br)Br)c1 [P'-18]" recordedmeasurement=3.9
compound="CCCC(C)NC(=O)c1cccc(S(=O)(=O)C(Br)(Br)Br)c1 (stereo not shown) [P'-20]" recordedmeasurement=3.9

====

experiment: Example 1: image storage stability 2 (developed material stored under light irradiation); conditions: Table 2, 1.6×10^-1 mol/mol-Ag, 24 hours, 10,000 luces, relative humidity 50%
Measured Image storage stability-2 (stored in light, 40°C, 50%) Dmax by item
endpoint: Image storage stability-2 (stored in light, 40°C, 50%) Dmax

compound=CCCCCCCCCCCCCCCCNC(=O)c1cccc(S(=O)(=O)C(Br)(Br)Br)c1 recordedmeasurement=2.8
compound=CCC(CC)NC(=O)c1cccc(S(=O)(=O)C(Br)(Br)Br)c1 recordedmeasurement=3.0
compound=CCOCCNC(=O)c1cccc(S(=O)(=O)C(Br)(Br)Br)c1 recordedmeasurement=3.0
compound="CCCC(C)NC(=O)c1cccc(S(=O)(=O)C(Br)(Br)Br)c1 (centres unmarked)" recordedmeasurement=3.0
compound=CCCCOCCCNC(=O)c1cccc(S(=O)(=O)C(Br)(Br)Br)c1 recordedmeasurement=3.0

Where do these numbers come from? They come from patent EP1072948B1.
